TARGET: Tyrosine-protein phosphatase non-receptor type 11 (Homo sapiens, UniProt Q06124)
Sequence (Q06124 whole entry): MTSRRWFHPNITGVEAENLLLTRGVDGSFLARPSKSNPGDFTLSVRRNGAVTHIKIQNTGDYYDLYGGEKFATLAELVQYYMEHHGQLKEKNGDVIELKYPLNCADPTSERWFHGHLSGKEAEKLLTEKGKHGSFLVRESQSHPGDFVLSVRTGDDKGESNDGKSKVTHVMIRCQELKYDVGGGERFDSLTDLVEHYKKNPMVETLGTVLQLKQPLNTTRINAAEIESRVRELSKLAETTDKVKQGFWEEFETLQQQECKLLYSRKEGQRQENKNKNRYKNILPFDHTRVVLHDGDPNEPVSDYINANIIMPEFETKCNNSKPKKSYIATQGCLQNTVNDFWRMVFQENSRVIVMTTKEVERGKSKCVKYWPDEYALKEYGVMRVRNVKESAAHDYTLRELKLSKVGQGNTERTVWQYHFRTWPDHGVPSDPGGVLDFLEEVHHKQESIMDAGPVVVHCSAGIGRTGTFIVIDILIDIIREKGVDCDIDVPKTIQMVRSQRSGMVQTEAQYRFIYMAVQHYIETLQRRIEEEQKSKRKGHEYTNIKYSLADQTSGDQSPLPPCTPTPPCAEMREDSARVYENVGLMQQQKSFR
EXPERIMENT: Binding affinity to recombinant SHP2 by surface plasmon […]
QUANTITY_NAME: pKd
Answer as the number alone; pKd is minus log10 of concentration in mol/L.

pKd for C[C@]12CC[C@@H]3c4ccc(OC(=O)N(CCCl)CCCl)cc4CC[C@H]3[C@@H]1CC[C@@H]2OP(=O)(O)O [ESTRAMUSTINE PHOSPHATE] is 5.08

----------
TARGET: Tyrosine-protein phosphatase non-receptor type 6 (Homo sapiens)
Sequence (P29350 whole entry): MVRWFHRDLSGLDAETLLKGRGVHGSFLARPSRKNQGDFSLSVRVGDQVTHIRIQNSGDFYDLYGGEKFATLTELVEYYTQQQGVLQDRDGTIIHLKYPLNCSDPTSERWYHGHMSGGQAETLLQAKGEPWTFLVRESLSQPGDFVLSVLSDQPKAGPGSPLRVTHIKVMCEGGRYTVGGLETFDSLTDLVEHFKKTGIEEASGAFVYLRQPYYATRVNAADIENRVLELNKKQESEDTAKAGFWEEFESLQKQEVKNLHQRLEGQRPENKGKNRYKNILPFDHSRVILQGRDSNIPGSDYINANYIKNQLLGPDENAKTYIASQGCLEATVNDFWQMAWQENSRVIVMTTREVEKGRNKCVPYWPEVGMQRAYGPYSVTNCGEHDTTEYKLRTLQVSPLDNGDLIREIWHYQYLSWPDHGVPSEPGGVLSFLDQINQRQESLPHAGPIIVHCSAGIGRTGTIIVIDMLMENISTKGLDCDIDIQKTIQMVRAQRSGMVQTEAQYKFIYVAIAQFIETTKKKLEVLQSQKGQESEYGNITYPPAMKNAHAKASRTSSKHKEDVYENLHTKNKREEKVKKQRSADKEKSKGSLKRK
EXPERIMENT: Inhibition of recombinant SHP1
QUANTITY_NAME: pIC50
Answer as the number alone; pIC50 is minus log10 of concentration in mol/L.

pIC50 for CC1=C(O)C(=O)C=C2C1=CC=C1[C@@]2(C)CC[C@@]2(C)[C@@H]3C[C@](C)(C(=O)O)CC[C@]3(C)CC[C@]12C [CELASTROL] is 4.56

pIC50 for CC1(C)[C@@H](O)CC[C@]2(C)[C@H]3C(=O)C=C4[C@@H]5C[C@@](C)(C(=O)O)CC[C@]5(C)CC[C@@]4(C)[C@]3(C)CC[C@@H]12 [ENOXOLONE] is 4.18

pIC50 for C[C@]12CC[C@@H]3c4ccc(OC(=O)N(CCCl)CCCl)cc4CC[C@H]3[C@@H]1CC[C@@H]2OP(=O)(O)O [ESTRAMUSTINE PHOSPHATE] is 4.39

----------
TARGET: Tyrosine-protein phosphatase non-receptor type 11 (Homo sapiens)
EXPERIMENT: Inhibition of recombinant SHP2
QUANTITY_NAME: IC50 (µM)
Write down the numeric answer in µM and omit the unit.

IC50 for CC1=C(O)C(=O)C=C2C1=CC=C1[C@@]2(C)CC[C@@]2(C)[C@@H]3C[C@@H](C)C(=O)C[C@]3(C)CC[C@]12C [TINGENONE] is 61.6

IC50 for CC1(C)[C@@H](O)CC[C@]2(C)[C@H]3C(=O)C=C4[C@@H]5C[C@@](C)(C(=O)O)CC[C@]5(C)CC[C@@]4(C)[C@]3(C)CC[C@@H]12 [ENOXOLONE] is 9.6

IC50 for C[C@]12CC[C@@H]3c4ccc(O)cc4CC[C@H]3[C@@H]1CC[C@@H]2OP(=O)(O)O [ESTRADIOL PHOSPHATE] is 19.9

----------
TARGET: UniProt:Q06124
EXPERIMENT: Inhibition of recombinant SHP2
QUANTITY_NAME: IC50 (µM)
Write down the numeric answer in µM and omit the unit.

IC50 for C[C@]12CC[C@@H]3c4ccc(OC(=O)N(CCCl)CCCl)cc4CC[C@H]3[C@@H]1CC[C@@H]2OP(=O)(O)O [ESTRAMUSTINE PHOSPHATE] is 17.1

IC50 for CC1=C(O)C(=O)C=C2C1=CC=C1[C@@]2(C)CC[C@@]2(C)[C@@H]3C[C@](C)(C(=O)O)CC[C@]3(C)CC[C@]12C is 3.3

----------
Kindly supply the reported IC50 values for the records listed here.
TARGET: Tyrosine-protein phosphatase non-receptor type 7 (Homo sapiens, UniProt P35236)
Sequence (P35236 whole entry): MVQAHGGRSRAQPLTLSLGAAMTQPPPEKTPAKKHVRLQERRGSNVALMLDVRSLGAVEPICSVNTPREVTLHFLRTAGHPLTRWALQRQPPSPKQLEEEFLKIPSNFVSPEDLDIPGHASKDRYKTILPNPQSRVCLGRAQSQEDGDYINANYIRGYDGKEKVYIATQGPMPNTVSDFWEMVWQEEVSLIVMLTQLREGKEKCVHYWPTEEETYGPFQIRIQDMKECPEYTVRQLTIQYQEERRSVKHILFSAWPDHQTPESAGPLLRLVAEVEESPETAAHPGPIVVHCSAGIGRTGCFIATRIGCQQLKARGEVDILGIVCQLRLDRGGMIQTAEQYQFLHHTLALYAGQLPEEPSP
EXPERIMENT: Inhibition of recombinant HePTP
Write down the numeric answer in µM and omit the unit.

IC50 for CC1=C(O)C(=O)C=C2C1=CC=C1[C@@]2(C)CC[C@@]2(C)[C@@H]3C[C@](C)(C(=O)O)CC[C@]3(C)CC[C@]12C is 75.7

IC50 for C[C@]12CC[C@@H]3c4ccc(OC(=O)N(CCCl)CCCl)cc4CC[C@H]3[C@@H]1CC[C@@H]2OP(=O)(O)O [ESTRAMUSTINE PHOSPHATE] is 153
